target system: PI3Kγ (p110γ) Recombinant Human Protein (Homo sapiens (Human), UniProt P48736)
Sequence (P48736 whole entry): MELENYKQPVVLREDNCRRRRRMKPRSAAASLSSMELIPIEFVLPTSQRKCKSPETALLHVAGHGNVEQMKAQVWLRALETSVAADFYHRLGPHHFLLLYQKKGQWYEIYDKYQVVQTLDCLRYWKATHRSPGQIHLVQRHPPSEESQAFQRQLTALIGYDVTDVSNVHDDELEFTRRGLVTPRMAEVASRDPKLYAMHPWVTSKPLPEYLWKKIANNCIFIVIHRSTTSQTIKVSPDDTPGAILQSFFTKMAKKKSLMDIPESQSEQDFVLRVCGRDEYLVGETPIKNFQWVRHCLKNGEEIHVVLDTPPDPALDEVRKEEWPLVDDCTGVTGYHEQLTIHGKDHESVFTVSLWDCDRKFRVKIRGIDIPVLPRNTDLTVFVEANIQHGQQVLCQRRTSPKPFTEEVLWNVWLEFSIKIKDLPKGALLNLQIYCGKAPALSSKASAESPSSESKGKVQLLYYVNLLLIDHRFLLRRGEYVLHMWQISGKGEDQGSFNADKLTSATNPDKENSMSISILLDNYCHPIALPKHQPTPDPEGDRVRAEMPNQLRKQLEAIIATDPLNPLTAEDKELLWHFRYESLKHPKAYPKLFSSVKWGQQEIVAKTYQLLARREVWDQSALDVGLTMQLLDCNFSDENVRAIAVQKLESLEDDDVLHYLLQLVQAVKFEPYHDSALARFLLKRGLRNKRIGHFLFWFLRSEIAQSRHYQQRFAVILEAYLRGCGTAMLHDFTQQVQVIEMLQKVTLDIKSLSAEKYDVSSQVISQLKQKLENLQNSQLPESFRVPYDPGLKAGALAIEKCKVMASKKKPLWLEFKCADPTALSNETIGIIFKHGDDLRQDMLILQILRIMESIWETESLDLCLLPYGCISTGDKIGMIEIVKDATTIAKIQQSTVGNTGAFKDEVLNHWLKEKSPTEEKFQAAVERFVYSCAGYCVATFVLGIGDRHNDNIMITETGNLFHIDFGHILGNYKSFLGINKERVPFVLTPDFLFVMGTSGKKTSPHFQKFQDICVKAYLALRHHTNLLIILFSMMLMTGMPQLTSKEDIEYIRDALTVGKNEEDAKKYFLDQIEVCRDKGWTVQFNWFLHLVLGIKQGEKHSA
protocol: PI3K-γ Scintillation Proximity Assay
Assay type: biochemical
condition description: read-out: PI3Kγ IC50
pIC50: −log10 of the molar value. Where a name gives a salt, the structure may show the parent alone.
Recorded pIC50 for the following compounds

Guide cases for pIC50, answers given:
compound: Cc1ccc(S(=O)(=O)N2CC3NCC2C3O)cc1-c1cnc2c(N)nc(C(F)(F)F)nn12 (centres unmarked)
pIC50: > 7.00

compound: Cc1ccc(S(=O)(=O)CC2CC2)cc1-c1cnc2c(N)ncnn12
pIC50: 6.30 to 7.00

compound: [2H]C([2H])([2H])c1ccc(S(=O)(=O)NC23CCC(O)(C2)C3)cc1-c1cnc2c(N)nc(C(F)(F)F)cn12
pIC50: > 7.00

compound: Cc1ccc(S(C)(=O)=O)cc1-c1cnc2c(N)nc(C(=O)NCC3CCC(C(F)(F)F)CC3)cn12 (mixture of isomers)
pIC50: 6.30 to 7.00

Any idea what its pIC50 is? The compound is Cc1ccc(S(=O)(=O)NC23CCC(CC#N)(CC2)C3)cc1-c1cnc2c(N)ncnn12 [Example 430, trifluoroacetate salt]
> 7.00

Field entry: COC(=O)NC12CC(NS(=O)(=O)c3ccc(C)c(-c4cnc5c(N)ncnn45)c3)(C1)C2 [Example 115, trifluoroacetate salt]
> 7.00

Field entry: Cc1ccc(S(=O)(=O)N2CCC[C@@H](N)C2)cc1-c1cnc2c(N)nc(C(F)(F)F)cn12 [Example 464, tris(2,2,2-trifluoroacetate)]
> 7.00

Field entry: COC[C@H]1CCCN1C(=O)C1CCCN(S(=O)(=O)c2ccc(C)c(-c3cnc4c(N)nc(C(F)(F)F)cn34)c2)C1 (some centres unmarked)
5.70 to 6.30

Field entry: `Cc1ccc(S(=O)(=O)NC23CCC(CO)(CC2)CC3)cc1-c1cnc2c(N)ncnn12`
> 7.00

Field entry: N#CC12CCC(NS(=O)(=O)c3cc(-c4cnc5c(N)nc(C(F)(F)F)cn45)ccc3Cl)(C1)C2 [Example 392, trifluoroacetate salt]
> 7.00

----------
target system: PI3Kγ (p110γ) Recombinant Human Protein (Homo sapiens (Human), UniProt P48736)
protocol: PI3K-γ Scintillation Proximity Assay
Type: biochemical
condition description: read-out: PI3Kγ IC50
Where a name gives a salt, the structure may show the parent alone.
endpoint: IC50

Guide cases for IC50, answers given:
compound: Cc1ccc(S(=O)(=O)NC23COC(C)(C2)C3)cc1-c1cnc2c(N)nc(C(F)(F)F)cn12 [Example 425, trifluoroacetate salt]
IC50: < 0.1 µM

compound: Cc1ccc(S(=O)(=O)N(C)CC(F)(F)F)cc1-c1cnc2c(N)ncnn12
IC50: < 0.1 µM

compound: Cc1ccc(S(=O)(=O)NCc2cnccn2)cc1-c1cnc2c(N)nc(C(F)(F)F)nn12
IC50: < 0.1 µM

compound: Cc1ccc(S(=O)(=O)NCC2(CO)CCOCC2)cc1-c1cnc2c(N)nc(C(F)(F)F)nn12 [Example 334, trifluoroacetate salt]
IC50: < 0.1 µM

compound: Nc1nc(C(F)(F)F)cn2c(-c3cc(S(=O)(=O)NC45CCC(CO)(C4)C5)ccc3Cl)cnc12
IC50: < 0.1 µM

compound: Nc1ncnn2c(-c3ccc(F)c(S(=O)(=O)NC45CCC(CO)(C4)C5)c3)cnc12 [Example 366, trifluoroacetate salt]
IC50: < 0.1 µM

Hi! What's the reported IC50 for Nc1nc(C(F)(F)F)cn2c(-c3cccc(S(=O)(=O)NC45CCC(CO)(C4)C5)c3)cnc12 [Example 394, trifluoroacetate salt] on PI3Kγ (p110γ) Recombinant Human Protein (Homo sapiens (Human), UniProt P48736)?
< 0.1 µM

Field entry: CCN(CC)CCCCNC(=O)c1cn2c(-c3cc(S(C)(=O)=O)ccc3C)cnc2c(N)n1 [Example 452, trifluoroacetate salt]
> 2 µM

Field entry: N#Cc1ccc(S(=O)(=O)NC23CCC(C#N)(C2)C3)cc1-c1cnc2c(N)ncnn12 [Example 260, trifluoroacetate salt]
< 0.1 µM

Field entry: `Cc1ccc(S(=O)(=O)NC23CC(C#N)(C2)C3)cc1-c1cnc2c(N)nc(C(F)(F)F)cn12`
< 0.1 µM

Field entry: Cc1ccc(S(=O)(=O)NC2(C)CCN(C3CC(C#N)C3)CC2)cc1-c1cnc2c(N)nc(C(F)(F)F)nn12 (centres unmarked) [Example 529, trifluoroacetate]
0.1 to 0.5 µM

Field entry: Cc1ccc(S(=O)(=O)N2CCC(C)(C#N)C2)cc1-c1cnc2c(N)ncnn12 (centres unmarked)
< 0.1 µM

Field entry: `Nc1nccn2c(-c3ccc(F)c(S(=O)(=O)NCC4(CO)CCOCC4)c3)cnc12`
0.1 to 0.5 µM

Field entry: Cc1ccc(S(=O)(=O)N2CCC3(CCO3)C2)cc1-c1cnc2c(N)ncnn12 (centres unmarked)
< 0.1 µM
